runDescription: melting temperature; melt of duplexes
experimentalSetup: sodium 0.0675 M; strand 1 µM

{"substance": "CGACGTGCAGCATGTGCTG+CAGCACATGCAGCACGTCG ((((((((.((((((((((+)))))))))).))))))))", "Tm": "60.8 °C"}
{"substance": "CGACGTGCTCTATGTGCTG+CAGCACATAATGCACGTCG ((((((((..(((((((((+)))))))))..))))))))", "Tm": "50.4 °C"}
{"substance": "CGACGTGCCCCATGTGCTG+CAGCACATCTTGCACGTCG ((((((((...((((((((+))))))))...))))))))", "Tm": "46.7 °C"}
{"substance": "CGACGTGCGTGATGTGCTG+CAGCACATTATGCACGTCG ((((((((.(.((((((((+)))))))).).))))))))", "Tm": "54.5 °C"}
{"substance": "CGACGTGCAGGATGTGCTG+CAGCACATGGAGCACGTCG ((((((((...((((((((+))))))))...))))))))", "Tm": "50.3 °C"}
{"substance": "CGACGTGCGGAATGTGCTG+CAGCACATGGTGCACGTCG ((((((((...((((((((+))))))))...))))))))", "Tm": "52.2 °C"}
{"substance": "CGACGTGCGAAATGTGCTG+CAGCACATAGCGCACGTCG (((((((((..((((((((+))))))))..)))))))))", "Tm": "55.4 °C"}

* * *

runDescription: melting temperature; melt of duplexes
experimentalSetup: sodium 0.0675 M; strand 1 µM
measuredProperty: Tm (°C)

{"substance": "CGACGTGCGTTATGTGCTG+CAGCACATTTGGCACGTCG ((((((((...((((((((+))))))))...))))))))", "quantityUnit": "°C", "reported": 49.4}
{"substance": "CGACGTGCGAAATGTGCTG+CAGCACATACCGCACGTCG (((((((((..((((((((+))))))))..)))))))))", "quantityUnit": "°C", "reported": 53.9}
{"substance": "CGACGTGCGCCATGTGCTG+CAGCACATTACGCACGTCG (((((((((..((((((((+))))))))..)))))))))", "quantityUnit": "°C", "reported": 52.3}
{"substance": "CGACGTGCCGCATGTGCTG+CAGCACATGCAGCACGTCG ((((((((.((((((((((+)))))))))).))))))))", "quantityUnit": "°C", "reported": 60}
{"substance": "CGACGTGCCTAATGTGCTG+CAGCACATCAGGCACGTCG ((((((((((.((((((((+)))))))).))))))))))", "quantityUnit": "°C", "reported": 56.3}
{"substance": "CGACGTGCCCCATGTGCTG+CAGCACATAATGCACGTCG ((((((((...((((((((+))))))))...))))))))", "quantityUnit": "°C", "reported": 45.8}
{"substance": "CGACGTGCCCAATGTGCTG+CAGCACATCTCGCACGTCG ((((((((...((((((((+))))))))...))))))))", "quantityUnit": "°C", "reported": 47.6}
{"substance": "CGACGTGCGGAATGTGCTG+CAGCACATACCGCACGTCG ((((((((((.((((((((+)))))))).))))))))))", "quantityUnit": "°C", "reported": 60.2}
{"substance": "CGACGTGCGTAATGTGCTG+CAGCACATACGGCACGTCG ((((((((...((((((((+))))))))...))))))))", "quantityUnit": "°C", "reported": 52.6}
{"substance": "CGACGTGCCCAATGTGCTG+CAGCACATGGGGCACGTCG ((((((((((.((((((((+)))))))).))))))))))", "quantityUnit": "°C", "reported": 61.3}
{"substance": "CGACGTGCATTATGTGCTG+CAGCACATATTGCACGTCG (((((((((.(((((((((+))))))))).)))))))))", "quantityUnit": "°C", "reported": 54.5}
{"substance": "CGACGTGCATAATGTGCTG+CAGCACATAGTGCACGTCG (((((((((..((((((((+))))))))..)))))))))", "quantityUnit": "°C", "reported": 48.7}
{"substance": "CGACGTGCTTAATGTGCTG+CAGCACATTACGCACGTCG ((((((((.((((((((((+)))))))))).))))))))", "quantityUnit": "°C", "reported": 54.8}
{"substance": "CGACGTGCCACATGTGCTG+CAGCACATTTCGCACGTCG ((((((((.(.((((((((+)))))))).).))))))))", "quantityUnit": "°C", "reported": 47.3}
{"substance": "CGACGTGCATAATGTGCTG+CAGCACATTAGGCACGTCG ((((((((.((((((((((+)))))))))).))))))))", "quantityUnit": "°C", "reported": 57.7}
